Where do the numbers come from? From PubChem BioAssay AID540269.

- experimental system: glucose-6-phosphate dehydrogenase-6-phosphogluconolactonase (Plasmodium falciparum 3D7)
- test details: PfG6PD enzyme inhibitors, kinetic NADPH readout, dose response, orthogonal assay, biochemical, kinetic NADPH detection (AID 540269)
- measurement parameters: purified PfG6PD-6PGL
Activity calls are given as the source filed them. The rule behind the calls is not given here.
Possible outcomes: 1 for active, -1 for inactive

compound	assigned category
CC(=O)c1cccc(NC(=O)c2cnn(-c3ccccc3)c2C)c1	1
CC1N(C)c2cccc3cccc(c23)N1C	1
COc1cc(O)c(C(=O)O)c(-c2cc(O)c(O)cc2C)c1	1
COc1cccc(C2(c3cccc(OC)c3)CC2C(=O)Nc2ccc(F)cc2)c1 (stereo unspecified)	-1
COc1ccccc1NS(=O)(=O)c1cc(NC(=O)c2ccc(Cl)nc2)ccc1N1CCCC1	1
O=C(CBr)c1ccc([N+](=O)[O-])c(CS(=O)(=O)c2ccc(Cl)cc2)c1	-1
COc1ccc(CN(C)S(=O)(=O)c2nnc(NC(=O)c3cccc(C)c3)s2)cc1OC	1
Cc1ccc(/C=C/C(=O)Nc2ccc([N+](=O)[O-])c(NC(=O)/C=C/c3ccc(C)o3)c2)o1	-1
O=C(O)C(Cc1ccccc1)N1C(=O)C=CC1=O (stereo unspecified)	1
OCCN1CCN(C(=S)c2ccc(Cl)c(Cl)c2)CC1	-1
N#CC(C#N)=C1C=CC=CN1/C(=C\c1ccccc1Cl)C(=O)c1ccccc1	-1
